So I've got a bunch of compounds here, and I need their growth inhibition values.
test: NCI Yeast Anticancer Drug Screen. Data for the sgs1 mgt1 strain (AID 161);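 also: 0% = growth of cultures given vehicle only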; details: S. cerevisiae sgs1 mgt1 strain, active compounds read high; at 50.0 µM unless noted
About 79,000 compounds went through this panel and 15% of them were active in at least one assay; those are over-represented in the sample as a whole.
One number for each entry, in %.

Dear reader, for each entry below, please note its growth inhibition.
1. O=C1CCc2nc(-c3ccccc3)ncc21
2. c1ccc(NN(Cc2cnccn2)c2ccccc2)cc1
3. COc1ccc2c(c1)c(CC(=O)O)c(C)n2Cc1ccccc1
4. CC(=O)Oc1c(C)c2c(c3ncccc13)OC(C)C2 (stereo unspecified)
5. [N-]=[N+]=NC1(N=[N+]=[N-])C(=O)Nc2ccccc2C1=O (stereo unspecified)
6. CN(C)C(C)(CO)CO
7. Nc1ccc(S(=O)[O-])cc1.Nc1ccc(S(=O)[O-])cc1.[Zn+2]

1.95
-24.9
-13.7
32.4
2.55
0.65
-6.15
